The reported numbers originate from patent US8906911B2.

Target: rat CCR2 (Rattus norvegicus (Rat), UniProt O55193)
Sequence (O55193 whole entry): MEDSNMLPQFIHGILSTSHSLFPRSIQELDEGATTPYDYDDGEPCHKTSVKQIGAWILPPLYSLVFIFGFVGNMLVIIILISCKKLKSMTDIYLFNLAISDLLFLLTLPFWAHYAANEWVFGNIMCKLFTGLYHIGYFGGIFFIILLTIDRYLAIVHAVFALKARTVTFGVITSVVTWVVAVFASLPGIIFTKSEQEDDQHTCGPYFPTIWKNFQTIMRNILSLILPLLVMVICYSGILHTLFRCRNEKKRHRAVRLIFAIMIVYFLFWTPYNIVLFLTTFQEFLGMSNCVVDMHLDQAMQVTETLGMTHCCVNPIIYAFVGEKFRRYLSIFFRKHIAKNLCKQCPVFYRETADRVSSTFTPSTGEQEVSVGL
Assay: Inhibition of native agonist (rat MCP-1)-induced intracellular calcium release, calcium flux assay in CHO cells expressing rat CCR2 and Gα16
Assay type: cell-based
Conditions: read-out: rCCR2 Kb
Description: CHO cells expressing human CCR2B were generated as follows. cDNA for human CCR2B (cloned from human blood) was cloned into plasmid pcDNA3.1 (from Invitrogen). […] Briefly, cells were cultured overnight in a microtiter plate at 8000 per well. […] Calcium flux assays were performed on a FLIPR^Tetra instrument (Molecular Devices) by adding compound to the cells followed by addition of native agonist and measuring the change in fluorescence as a function of time. […]
valueKind: Kb

Some compounds with known Kb results, for comparison:
CO[C@@H]1COCC[C@@H]1N[C@@H]1C[C@H]2CCC[C@@]2(C(=O)N2C[C@@H]3C[C@H]2CN3c2cccc(C(F)(F)F)c2F)C1 :: 160 nM
CO[C@@H]1COCC[C@H]1N[C@@H]1C[C@H]2CCC[C@@]2(C(=O)N2C[C@H]3C[C@@H]2CN3c2cc(C(F)(F)F)ccn2)C1 :: > 6940 nM

// below: Kb requested for another compound
What reported Kb corresponds to CO[C@@H]1COCC[C@H]1N[C@@H]1C[C@H]2CCC[C@@]2(C(=O)N2[C@@H]3CC[C@H]2CN(c2cc(C(F)(F)F)ccn2)C3)C1 on rat CCR2 (Rattus norvegicus (Rat), UniProt O55193)? > 4000 nM

---

Recorded Kb, one value per entry.
target: rat CCR2 (Rattus norvegicus (Rat), UniProt O55193); experiment: Inhibition of native agonist (rat MCP-1)-induced intracellular calcium release, calcium flux assay in CHO cells expressing rat CCR2 and Gα16; format: cell-based; conditions: read-out: rCCR2 Kb
Unit nM implied. Number only.

Some compounds with known Kb results, for comparison:
CO[C@@H]1COCC[C@@H]1N[C@@H]1C[C@H]2CCC[C@@]2(C(=O)N2C[C@@H]3C[C@H]2CN3C(=O)OC(C)(C)C)C1 :: 19
CO[C@@H]1COCC[C@@H]1N(C)[C@@H]1C[C@H]2CCC[C@@]2(C(=O)N2C[C@@H]3C[C@H]2CN3c2cc(C(F)(F)F)ccc2C(F)(F)F)C1 :: 38

What reported Kb corresponds to O=C(N1C[C@@H]2C[C@H]1CN2c1cc(C(F)(F)F)ccn1)[C@@]12CCC[C@@H]1C[C@@H](N1CCOCC1)C2 on rat CCR2 (Rattus norvegicus (Rat), UniProt O55193)? 533

---

Biological target: human CCR2B (Homo sapiens (Human))
Sequence (P41597 other isoform, or with tags, fused parts or gaps): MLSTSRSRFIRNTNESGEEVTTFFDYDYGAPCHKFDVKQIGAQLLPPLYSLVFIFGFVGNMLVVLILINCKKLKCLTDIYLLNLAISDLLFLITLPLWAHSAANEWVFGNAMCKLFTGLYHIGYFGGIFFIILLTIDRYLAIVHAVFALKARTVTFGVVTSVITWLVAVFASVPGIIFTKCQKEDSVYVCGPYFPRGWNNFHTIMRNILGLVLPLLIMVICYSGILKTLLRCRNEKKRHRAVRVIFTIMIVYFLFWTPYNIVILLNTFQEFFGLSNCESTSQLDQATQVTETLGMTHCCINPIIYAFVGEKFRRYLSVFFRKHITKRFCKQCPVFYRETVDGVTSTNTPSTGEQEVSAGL
Assay: Inhibition of [125I]-labeled MCP-1 binding to hCCR2B (radioligand binding in CHO cells)
Settings: mean Ki; [125I]-MCP-1 50 pM; CHO cells expressing human CCR2B and Gα16
Experimental: CHO cells expressing human CCR2B were generated as follows. cDNA for human CCR2B (cloned from human blood) was cloned into plasmid pcDNA3.1 (from Invitrogen). […] Compounds were serially diluted in DMSO before diluting into assay buffer (25 mM HEPES, pH 7.4, 5 mM MgCl2, 1 mM CaCl2, 0.5% BSA) with cryo preserved CHO cells expressing human CCR2B and the Gα16 coupling protein (30×10^3/well) and [^125I]-MCP-1 (50 pM). […] The corresponding Ki value is calculated as follows: […]
Values of Ki strictly less than 30 nM map to Met, and values of at least 30 nM map to Not met.

Example entries and their recorded answers appear below.
C[C@@H]1COCC[C@H]1N[C@@H]1C[C@H]2CCC[C@@]2(C(=O)N2C[C@@H]3C[C@H]2CN3c2cc(C(F)(F)F)ccn2)C1 :: Met
CO[C@@H]1COCC[C@@H]1N(C)[C@@H]1C[C@H]2CCC[C@@]2(C(=O)N2C[C@@H]3C[C@H]2CN3c2cc(C(F)(F)F)ccc2C(F)(F)F)C1 :: Not met
CO[C@@H]1COCC[C@@H]1N(C)[C@@H]1C[C@H]2CCC[C@@]2(C(=O)N2C[C@@H]3C[C@H]2CN3c2ccc(C#N)c(C(F)(F)F)c2)C1 :: Not met

Now consider the entry below.
Just wondering, is Ki of CO[C@@H]1COCC[C@@H]1N[C@@H]1C[C@H]2CCC[C@@]2(C(=O)N2C[C@@H]3C[C@H]2CN3c2cc(F)cc(C(F)(F)F)c2)C1 below 30 nM? Not met
